# assay: chemical genetic growth profiling, strain panel (AID 1159580);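 also: tested at 20 µM; growth read once vehicle control cultures reached saturation at 30 °C; 1 = growth at the plate median or of vehicle wells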
# condition: S. cerevisiae deletion strains, growth OD, locus YOR270C, strain vph1, stronger effect = lower value
Hit rate of the full screen: of about 5,500 compounds, about 2,000 (36%) were called active. Another 18% or so got no clear call; they are omitted. The list shows a part of the results.
We label by threshold. Values of normalized growth strictly beneath 0.9 are true. Values of 0.9 and up are false.

{"columns": ["molecule", "group"],
 "data": [
  ["NCCS(=O)(=O)O", "false"],
  ["Oc1cc(O)c2c(c1)O[C@H](c1ccc(O)c(O)c1)[C@@H](O)C2", "false"],
  ["NCCc1cnc[nH]1", "false"],
  ["CC(=O)Oc1cc(OC(C)=O)c2c(c1)O[C@H](c1ccc(OC(C)=O)c(OC(C)=O)c1)[C@@H](OC(C)=O)C2", "false"],
  ["COC(=O)c1cc(=O)c(O)c2c(O)c(O)ccc2c1", "false"],
  ["C/C=C(\\C)C(=O)O[C@H]1C[C@@H](OC(C)=O)[C@@]2(C(=O)OC)CO[C@@H]3C2[C@]12CO[C@](O)(C(=O)OC)[C@H]2[C@](C)(C12O[C@@]1(C)[C@H]1C[C@@H]2OC2OC=C[C@@]21O)[C@@H]3O (some centres not stated)", "false"],
  ["CN(C)CCN(Cc1ccccc1)c1ccccn1", "false"],
  ["CC(=O)Oc1cc(OC(C)=O)c2c(c1)O[C@H](c1ccc(OC(C)=O)c(OC(C)=O)c1)[C@H](OC(C)=O)C2", "false"],
  ["CCOC(=O)n1ccn(C)c1=S", "false"],
  ["COc1ccc([C@H]2Oc3c(I)c(OC)cc(OC)c3C[C@@H]2O)cc1OC", "false"],
  ["Nc1ncn[nH]1", "false"],
  ["O=C1CCC(N2C(=O)c3ccccc3C2=O)C(=O)N1 (configuration not stated)", "false"],
  ["Clc1ccc(C(OCCN2CCCCC2)c2ccccc2)cc1 (configuration not stated)", "true"],
  ["CC[C@@]1(O)C[C@H](O[C@H]2C[C@H](N(C)C)[C@H](O)[C@H](C)O2)c2c(cc3c(c2O)C(=O)c2c(O)ccc(O)c2C3=O)[C@H]1C(=O)OC", "true"],
  ["COc1cc([C@@H]2c3cc4c(cc3C(OC3O[C@@H]5COC(C)O[C@H]5[C@H](O)[C@H]3O)C3COC(=O)[C@@H]32)OCO4)cc(OC)c1O (some centres not stated)", "false"],
  ["C#CCCCCCCCCCCCc1ccco1", "false"],
  ["N=c1ccn2c(n1)OC1C(O)C(CO)OC12 (configuration not stated)", "false"],
  ["NCCCS(=O)(=O)O", "false"],
  ["COc1ccc(C2CNC(=O)C2)cc1OC1CCCC1 (configuration not stated)", "false"],
  ["O=C(O)/C=C/c1ccc(O)c(O)c1", "false"],
  ["O=S(=O)(O)CCS", "false"],
  ["CCCCCCCCCCC[C@@H](C[C@H]1OC(=O)[C@H]1CCCCCC)OC(=O)[C@@H](CC(C)C)NC=O", "false"],
  ["CCCc1cc(C(N)=S)ccn1", "false"],
  ["CC[C@@]1(O)C[C@H](O)c2c(cc3c(c2O)C(=O)c2c(O)ccc(O)c2C3=O)[C@H]1C(=O)OC", "true"],
  ["O=c1cccc2ccc(O)c(O)c2c1O", "true"],
  ["Cc1ncc(CNC(=O)N(CCCl)N=O)c(N)n1", "false"],
  ["Oc1ccc2c(c1)O[C@H](c1ccc(O)c(O)c1)[C@@H](O)C2", "false"],
  ["Oc1cc(O)c2c(c1)O[C@H](c1ccc(O)c(O)c1)[C@H](O)C2", "false"],
  ["O=C1NCC2(CCN(CCc3ccccc3)CC2)O1", "false"],
  ["CN1CCC(OC(c2ccccc2)c2ccccc2)CC1", "false"],
  ["O=C(O[C@@H]1Cc2c(O)cc(O)cc2O[C@@H]1c1cc(O)c(O)c(O)c1)c1cc(O)c(O)c(O)c1", "true"],
  ["CCCCC/C=C/CCC(=O)N[C@H]1[C@H](Oc2c3cc4cc2Oc2ccc(cc2Cl)[C@@H](O[C@@H]2O[C@H](CO)[C@@H](O)[C@H](O)[C@H]2NC(C)=O)[C@@H]2NC(=O)[C@H](NC(=O)[C@@H]4NC(=O)[C@H]4NC(=O)C(Cc5ccc(c(Cl)c5)O3)NC(=O)[C@H](N)c3ccc(O)c(c3)Oc3cc(O)cc4c3)c3ccc(O)c(c3)-c3c(OC4O[C@H](CO)[C@@H](O)[C@H](O)[C@@H]4O)cc(O)cc3[C@@H](C(=O)O)NC2=O)O[C@H](CO)[C@@H](O)[C@@H]1O (some centres not stated)", "false"],
  ["Oc1cc(O)c2c(c1)O[C@H](c1cc(O)c(O)c(O)c1)[C@H](O)C2", "false"],
  ["Cc1ccccc1C(OCCN(C)C)c1ccccc1 (configuration not stated)", "false"],
  ["COc1ccc2c(c1)OC/C(=C/c1ccc(OC)c(OC)c1)C2=O", "true"],
  ["CC1(O)CC2C(CC1O)C2(C)C (configuration not stated)", "false"],
  ["CC[C@@]1(O)C[C@H](O[C@H]2C[C@H](N(C)C)[C@H](O)[C@H](C)O2)c2c(cc3c(c2O)C(=O)c2c(O)cccc2C3=O)[C@H]1C(=O)OC", "true"],
  ["CN(C)CCOC(c1ccc(Cl)cc1)c1ccccn1 (configuration not stated)", "false"],
  ["CN1CC(=O)N=C1N", "false"]
]}

----------
Documented normalized growth across a set of compounds
# assay: chemical genetic growth profiling, strain panel (AID 1159580);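 also: tested at 20 µM; growth read once vehicle control cultures reached saturation at 30 °C; 1 = growth at the plate median or of vehicle wells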
# condition: S. cerevisiae deletion strains, growth OD, locus YER016W, strain bim1, stronger effect = lower value
About 2,000 (36%) of roughly 5,500 compounds were called active. Another 18% or so got no clear call; they are omitted. The list shows a part of the results.
measured_endpoint: normalized growth

{"columns": ["compound", "endpoint_value"],
 "data": [
  ["CC1(C)S[C@@H]2[C@H](NC(=O)[C@H](N)c3ccccc3)C(=O)N2[C@H]1C(=O)O", 0.955],
  ["CCC(C)C(=O)O[C@@H]1C[C@@]2(C)[C@H](c3ccoc3)OC(=O)CC23OC2(C)O[C@]14[C@]1(C)[C@@H](CC(=O)OC)C5(C)CC1(O)[C@](O)(C5OC(=O)C1(C)OC1C)[C@@H](OC(C)=O)[C@]34O2 (stereo partly drawn)", 0.995],
  ["CCC(C)C(=O)O[C@@H]1C[C@@]2(C)[C@H](c3ccoc3)OC(=O)CC23OC2(C)OC34[C@H](OC(=O)C(C)C)[C@@]3(O)[C@@H](OC(=O)C5(C)OC5C)[C@@]5(C)C[C@]3(O)[C@@](C)([C@H]5CC(=O)OC)C14O2 (stereo partly drawn)", 1]
]}

----------
# assay: chemical genetic growth profiling, strain panel (AID 1159580);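 also: tested at 20 µM; growth read once vehicle control cultures reached saturation at 30 °C; 1 = growth at the plate median or of vehicle wells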
# condition: S. cerevisiae deletion strains, growth OD, locus YPL078C, strain atp4, stronger effect = lower value
Screen size: about 5,500 compounds; about 2,000 (36%) were called active. Roughly 18% stayed inconclusive and do not appear here. The list shows a part of the results.
normalized growth less than 1 is rule met; normalized growth greater than or equal to 1 is rule not met.

{"columns": ["molecule", "group"],
 "data": [
  ["O=C(/C=C/c1ccc(O)c(O)c1)OC(Cc1ccc(O)c(O)c1)C(=O)O (stereo not given)", "rule not met"],
  ["CC(=O)S[C@@H]1CC2=CC(=O)CC[C@]2(C)[C@H]2CC[C@@]3(C)[C@@H](CC[C@@]34CCC(=O)O4)C12 (stereo not given in full)", "rule not met"],
  ["CC[C@]1(O)CC2CN(CCc3c([nH]c4ccccc34)[C@@](C(=O)OC)(c3cc4c(cc3OC)N(C)[C@H]3[C@@](O)(C(=O)OC)[C@H](OC(C)=O)[C@]5(CC)C=CCN6CC[C@]43[C@@H]65)C2)C1 (stereo not given in full)", "rule not met"],
  ["O=C(/C=C/c1ccc(O)c(O)c1)OCCc1ccccc1", "rule met"],
  ["CCOC(=O)n1ccn(C)c1=S", "rule not met"],
  ["Oc1cc(O)c2c(c1)O[C@H](c1cc(O)c(O)c(O)c1)[C@H](O)C2", "rule not met"],
  ["COc1ccc(-c2coc3cc(O)ccc3c2=O)cc1", "rule met"],
  ["O=c1cccc2ccc(O)c(O)c2c1O", "rule met"]
]}

----------
# assay: chemical genetic growth profiling, strain panel (AID 1159580);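 also: tested at 20 µM; growth read once vehicle control cultures reached saturation at 30 °C; 1 = growth at the plate median or of vehicle wells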
# condition: S. cerevisiae deletion strains, growth OD, locus YGL227W, strain vid30
The whole screen tested about 5,500 compounds, of which about 2,000 (36%) were called active. Not shown: some 18% with an inconclusive outcome. No stated cut-off is given here; in the data, active means normalized growth mostly below about 0.91 (no sharp cut-off); inconclusive means no clear call, values can overlap the other calls; inactive means mostly above about 0.92. This is one part of the list.
Outcomes: True = active, False = inactive

{"columns": ["compound", "group"],
 "data": [
  ["COc1ccc2c(c1)OC/C(=C\\c1ccc(OC)c(O)c1)C2=O", "True"],
  ["COc1ccc(C(c2ccc(OC)cc2)C(Cl)(Cl)Cl)cc1", "False"],
  ["COc1ccc2c(c1)OC/C(=C/c1ccc(OC)c(OC)c1)C2=O", "False"],
  ["CCCCC/C=C/CCC(=O)N[C@H]1[C@H](Oc2c3cc4cc2Oc2ccc(cc2Cl)[C@@H](O[C@@H]2O[C@H](CO)[C@@H](O)[C@H](O)[C@H]2NC(C)=O)[C@@H]2NC(=O)[C@H](NC(=O)[C@@H]4NC(=O)[C@H]4NC(=O)C(Cc5ccc(c(Cl)c5)O3)NC(=O)[C@H](N)c3ccc(O)c(c3)Oc3cc(O)cc4c3)c3ccc(O)c(c3)-c3c(OC4O[C@H](CO)[C@@H](O)[C@H](O)[C@@H]4O)cc(O)cc3[C@@H](C(=O)O)NC2=O)O[C@H](CO)[C@@H](O)[C@@H]1O (some centres not stated)", "False"],
  ["Clc1ccc(C(OCCN2CCCCC2)c2ccccc2)cc1 (configuration not stated)", "False"],
  ["CN(C)CCOC(c1ccc(Cl)cc1)c1ccccn1 (configuration not stated)", "False"],
  ["COc1ccc(OC)c(C(O)CNC(=O)CN)c1 (configuration not stated)", "False"]
]}
